Reference source for all entries: PubChem BioAssay AID330

System: P388 leukemia ip, CD2F1 mice, survival T/C
Assay Comment: NCI In Vivo Anticancer Drug Screen. Data for tumor model P388 Leukemia (intraperitoneal) in CD2F1 (CDF1) mice
Assay Conditions: endpoint: median survival time; dose: 240.0 mg/kg/injection; schedule: Q01DX005 (ip); vehicle: saline with Tween-80; higher = longer survival
Toxic doses and inconclusive results are not listed.
# reported T/C; entries follow
Endpoint Name: T/C

1. Cc1cc(NS(=O)(=O)c2ccc(NCc3c4ccccc4nc4cc(Cl)ccc34)cc2)no1 :: 94 % of control
2. Nc1nnc(/C=C/c2ccc(Cl)c(Cl)c2)o1 :: 102 % of control
3. CC(=O)c1cc(Cl)ccc1OCC(O)CNc1ccc(Cl)cc1C(=O)c1ccccc1 (centres undefined) :: 86 % of control
4. Cc1csc(N2C(=O)c3cccc4cccc(c34)C2=O)n1 :: 96 % of control
5. O=C(NCCCl)Nc1[nH]c(=O)ncc1Cl :: 101 % of control
6. CCc1nc(N)nc(N)c1-c1ccc(N(C)C2CCCCC2)c([N+](=O)[O-])c1 :: 103 % of control
7. CS(=O)(=O)N/N=C(\N)Oc1ccc(Cl)cc1Cl :: 88 % of control
8. CC(C)(C)c1cc(C(C)(C)C)c2ssnc1-2 :: 91 % of control
9. CCOC(=O)C(C#N)C(=N)C1C(=O)OC2CCCCC21 (centres undefined) :: 92 % of control

* * *

Test system: P388 leukemia ip, CD2F1 mice, survival T/C
Assay Comment: NCI In Vivo Anticancer Drug Screen. Data for tumor model P388 Leukemia (intraperitoneal) in CD2F1 (CDF1) mice
Assay Conditions: endpoint: median survival time; dose: 200.0 mg/kg/injection; schedule: Q01DX005 (ip); vehicle: saline; higher = longer survival
Inconclusive results and toxic doses are left out.
In this section, each of the compounds is paired with its reported T/C.
Endpoint Name: T/C

1) COC(C(=O)C1=C2Oc3c4c(cc(O)c3C(=O)C2C2=C(CCCC2)C1=O)OC(C)(C)C=C4)C(C)CCC=C(C)C (stereo not drawn) :: 90 % of control
2) O=C([O-])CCNC1OC(CO)C(O)C(O)C1O.O=C([O-])CCNC1OC(CO)C(O)C(O)C1O.[Pd+2] (stereo not drawn) :: 99 % of control
3) NC(=O)n1ncnc1N :: 102 % of control

* * *

Tested on: P388 leukemia ip, CD2F1 mice, survival T/C
Assay Comment: NCI In Vivo Anticancer Drug Screen. Data for tumor model P388 Leukemia (intraperitoneal) in CD2F1 (CDF1) mice
Assay Conditions: endpoint: median survival time; dose: 25.0 mg/kg/injection; schedule: Q01DX009 (ip); vehicle: water; higher = longer survival
Toxic doses and inconclusive results are not listed.
The entries below come with measured T/C values attached.
Endpoint Name: T/C

1) CCN(CC)CCNc1ccc(CO)c2sc3ccccc3c(=O)c12 :: 122 % of control
2) COCC(CC(=O)O)C(C(=O)O)C(=O)O (stereo unspecified) :: 106 % of control
3) CC(=O)CC(C)(C)C1CCCCC1 :: 108 % of control
4) Cc1c[n+]([O-])ccc1Br :: 100 % of control
5) O=S(=O)(OI(O)c1ccccc1)c1ccccc1 :: 116 % of control
6) CC1(C)C(C#N)C(=O)NC(=O)C1C#N (stereo unspecified) :: 95 % of control

* * *

System: P388 leukemia ip, CD2F1 mice, survival T/C
Assay Comment: NCI In Vivo Anticancer Drug Screen. Data for tumor model P388 Leukemia (intraperitoneal) in CD2F1 (CDF1) mice
Assay Conditions: endpoint: median survival time; dose: 200.0 mg/kg/injection; schedule: Q04DX002 (ip); vehicle: Klucel (hydroxypropylcellulose) (HPC); higher = longer survival
Inconclusive results and toxic doses are left out.
Each entry below lists one item and its recorded T/C value.
Endpoint Name: T/C

1) CCOC(=O)NCNC(=O)OCC :: 107 % of control
2) c1cnc2c(c1)Nc1cnncc1S2 :: 100 % of control
3) COC(=O)c1ccc(C(N)=O)nc1 :: 105 % of control
4) CNCCCc1cc(-c2ccc([N+](=O)[O-])cc2)n[nH]1 :: 100 % of control
5) CNc1cc(NC)c2c(c1N)C(=O)c1ccccc1C2=O :: 101 % of control
6) O=C(O)c1ccnc2c1ccc1ccccc12 :: 94 % of control

* * *

System: P388 leukemia ip, CD2F1 mice, survival T/C
Assay Comment: NCI In Vivo Anticancer Drug Screen. Data for tumor model P388 Leukemia (intraperitoneal) in CD2F1 (CDF1) mice
Assay Conditions: endpoint: median survival time; dose: 50.0 mg/kg/injection; schedule: Q01DX005 (ip); vehicle: saline with Tween-80; higher = longer survival
Toxic doses and inconclusive results are not listed.
Some compounds, each annotated with its measured T/C.
Endpoint Name: T/C

1. CS(=O)(=O)OCC(F)(F)COS(C)(=O)=O :: 94 % of control
2. Cc1[nH]oc(=O)c1C(=O)c1ccccc1 :: 95 % of control
3. O=C(N/C(=C/c1ccc(Cl)cc1Cl)c1nc2ccccc2s1)c1ccccc1 :: 109 % of control
4. COC(=O)C(O)CC1=CC[C@@H]2CC=C[C@H]12 (stereo partly drawn) :: 104 % of control
5. COc1cccc(/C=C/S(=O)(=O)Cc2ccccc2)c1OC :: 93 % of control
6. NCC1CCC(C(=O)O)CC1 (stereo not drawn) :: 94 % of control
7. CCN=C1NS(=O)(=O)c2ccccc21 :: 100 % of control
8. CC1=N[N+](C)(C)C([O-])=C1C :: 103 % of control
9. COc1cc2c(cc1C(C)c1cc(C(C)(C)C)c(O)c(C(C)(C)C)c1)OCO2 (stereo not drawn) :: 104 % of control
10. CCCCCCCCCCCC1=C(O)C(=O)C(Br)=C(O)C1=O :: 92 % of control
11. CN(C)CCCN1c2ccccc2Sc2ccc3ccccc3c21 :: 104 % of control
12. O=C1c2cccc3cccc(c23)C(=O)N1c1nccs1 :: 100 % of control
13. CC(CCC(=O)O)(c1ccc(OC(=O)Nc2ccc(Br)cc2)cc1)c1ccc(OC(=O)Nc2ccc(Br)cc2)cc1 :: 102 % of control
14. COC(=O)c1ccccc1NC1=NS(=O)(=O)c2ccccc2N1C :: 87 % of control
15. CCOc1cc2c(cc1C(C)c1ccccc1OC)OCO2 (stereo not drawn) :: 100 % of control
16. CC[Si](CC)(CC)OC(C#N)c1ccc2c(c1)OCO2 (stereo not drawn) :: 104 % of control
17. NC(=S)N/N=C\C(CC(O)C(O)CO)=N\NC(N)=S (stereo not drawn) :: 89 % of control
18. Cn1c(CN(CCN(Cc2nc3ccccc3n2C)Cc2nc3ccccc3n2C)Cc2nc3ccccc3n2C)nc2ccccc21 :: 100 % of control

* * *

System: P388 leukemia ip, CD2F1 mice, survival T/C
Assay Comment: NCI In Vivo Anticancer Drug Screen. Data for tumor model P388 Leukemia (intraperitoneal) in CD2F1 (CDF1) mice
Assay Conditions: endpoint: median survival time; dose: 400.0 mg/kg/injection; schedule: Q01DX001 (ip); vehicle: Klucel (hydroxypropylcellulose) (HPC); higher = longer survival
Inconclusive results and toxic doses are left out.
Listing: T/C of selected compounds
Endpoint Name: T/C

1) CCC(=O)n1c(Cl)c(/C=N/NC(N)=S)c2ccccc21 :: 93 % of control
2) O=C(O)c1c(Cl)n(-c2ccccc2)c2c(C(=O)O)cccc12 :: 97 % of control
3) CCC1(CC)CCC(C(=O)OC)/C1=N\Nc1ccc([N+](=O)[O-])cc1[N+](=O)[O-] (stereo not drawn) :: 100 % of control
4) Cc1ccc(S(=O)(=O)N2CCC(O)(c3ccccc3)CC2)cc1 :: 93 % of control
5) CN=NNc1ccc(C#N)cc1 :: 95 % of control
6) Cc1[nH]c2cc3c(cc2c(=O)c1Cc1c(C)[nH]c2cc4c(cc2c1=O)CCCC4)CCCC3 :: 87 % of control
7) COc1cccc(OC(=O)c2ccc(OC)c(C3=CC(=O)C=CC3=O)c2)c1 :: 89 % of control
8) COc1cc2c(cc1OC)C(Cc1cc(Br)sc1Br)N(C(C)=O)CC2 (stereo not drawn) :: 113 % of control
9) N#CC(c1ccc2c(c1)OCO2)N1CCCC1 (stereo not drawn) :: 99 % of control
10) Cc1ccc(S(=O)(=O)NNC(=O)c2ccccc2Nc2cccc(Br)c2)cc1 :: 98 % of control
11) [NH-][n+]1c2c(nc3ccccc31)-c1cccc3cccc-2c13 :: 102 % of control
12) CCOc1nc(C(=O)O)cc2ccsc12 :: 96 % of control
13) CCC(=O)/C=C/c1cc(OC)c(OC)c(OC)c1 :: 100 % of control

* * *

Test system: P388 leukemia ip, CD2F1 mice, survival T/C
Assay Comment: NCI In Vivo Anticancer Drug Screen. Data for tumor model P388 Leukemia (intraperitoneal) in CD2F1 (CDF1) mice
Assay Conditions: endpoint: median survival time; dose: 240.0 mg/kg/injection; schedule: Q01DX005 (ip); vehicle: saline with Tween-80; higher = longer survival
Inconclusive results and toxic doses are left out.
Overview of reported T/C across a group of compounds:
Endpoint Name: T/C

1) Cc1cc([N+](=O)[O-])ccc1NC(=O)OC(C)C :: 99 % of control
2) CN(C)c1nnnn1-c1ccccc1 :: 107 % of control
3) COc1ccc2c(O)c(S(=O)(=O)c3ccc(Cl)cc3)c(=O)oc2c1 :: 102 % of control
4) C[CH2][Ge]([CH2]C)[O][Ge]([CH2]C)[CH2]C.c1cc[c]([Ge]([c]2ccccc2)[c]2ccccc2)cc1.c1cc[c]([Ge]([c]2ccccc2)[c]2ccccc2)cc1 :: 98 % of control
5) COC(=O)C1(CC(=O)c2cc(Cl)ccc2Cl)NC(=S)NC(=O)C1C#N (centres undefined) :: 95 % of control
6) COC(=O)c1cc(-c2ccc(N)cc2)c2c(=O)n(-c3ccccc3)[nH]c2n1 :: 87 % of control
7) O=S(=O)(Nc1ncccn1)c1ccc(NCc2c3ccccc3nc3cc(Cl)ccc23)cc1 :: 91 % of control
8) Cc1ccc(C2(c3ccccc3)OC3OC=CC32)cc1 (centres undefined) :: 96 % of control
9) CC(C)c1nc2c(n1Cc1ccccc1)C=C(C(=O)c1ccccc1)S(=O)(=O)C(C(=O)c1ccccc1)=C2 :: 92 % of control
10) C=C1C[C@H](O)[C@H]2C(C[Se]c3ccccc3)C(=O)O[C@@H]2[C@H]2[C@H](C)C(O)C[C@@H]12 (some centres undefined) :: 98 % of control
11) CC(=O)OCC(COC(C)=O)(CN1C(=O)c2ccccc2C1=O)CN1C(=O)c2ccccc2C1=O :: 102 % of control
12) CC(C)(C)OOC(=O)c1ccc2ccccc2c1 :: 93 % of control
13) Cc1ccccc1NC(=O)C(=O)C(C#N)c1c(Cl)cccc1Cl (centres undefined) :: 99 % of control
14) CN(c1ccccc1)c1c(Cl)c(=O)oc2c1ccc1occc12 :: 105 % of control
15) COc1ccc(C(=O)CCc2cccc(NC(=O)CCl)c2)cc1 :: 102 % of control
16) CCOC(=O)c1c(=O)[nH]c(=O)n2c1[nH]c1ccccc12 :: 90 % of control
17) O/N=C/C1CCCC[N-]1.[Co+3].[O-]/N=C/C1CCCC[N-]1.[O-]/N=C/C1CCCC[N-]1.[O-][Cl+3]([O-])([O-])O (centres undefined) :: 104 % of control
18) Cc1ccc2occ3c(=O)n(C)nc-3c2c1 :: 94 % of control
19) COc1cccc(C2SCC(=O)N2c2nncs2)c1[N+](=O)[O-] (centres undefined) :: 91 % of control
20) CCC1C(OC)=CC2(CC)CC1(OC)OC2=O (centres undefined) :: 102 % of control
21) O=C(CCC(=O)Nc1cc(Cl)ccc1Cl)CC(=O)c1ccc([N+](=O)[O-])cc1 :: 109 % of control
22) CCOC(=O)C1(C(=O)OCC)C(C)CC(=O)N1c1ccccc1OC (centres undefined) :: 95 % of control
23) CC1(CN2CCCCC2)COc2c(Cl)cc(Cl)cc2C1=O (centres undefined) :: 86 % of control
24) Cc1ncc(C(=O)O)n1C(C)c1ccccc1 (centres undefined) :: 110 % of control
25) COC(=O)C1(CC(=O)c2ccccc2)NC(=S)NC(=O)C1C#N (centres undefined) :: 98 % of control
26) Cc1ccc(S(=O)(=O)CC(=O)CC(=O)C(N)=O)cc1 :: 104 % of control
27) CCNC(=O)NS(=O)(=O)c1ccc(Sc2ccc(C)cc2)nc1 :: 94 % of control
28) NC(=O)c1sc2ncccc2c1N :: 96 % of control
29) COc1ccc2c(n1)Sc1nc3ccccc3nc1N2 :: 101 % of control
30) CSc1nnc(CCC(=O)Nc2c(C)cccc2C(C)(C)C)o1 :: 91 % of control
31) Cc1ccc2c(c1)sc(C)[n+]2CCO :: 101 % of control
32) CSc1nc(NC2OC(COC(C)=O)C(OC(C)=O)C(OC(C)=O)C2OC(C)=O)c(N=CC=Nc2c(NC3OC(COC(C)=O)C(OC(C)=O)C(OC(C)=O)C3OC(C)=O)nc(SC)[nH]c2=O)c(=O)[nH]1 (centres undefined) :: 111 % of control
33) CSCCC(NC(=O)c1cnc2ccccc2c1)C(N)=O (centres undefined) :: 87 % of control
34) CC1(C)CC(=O)C=C(n2ccccc2=O)C1 :: 97 % of control
35) C[Si](C)(C)Cn1cccc1 :: 94 % of control
36) CCN(CC)c1cccc(OC(=O)Nc2cccc(Cl)c2Cl)c1 :: 92 % of control
37) Nc1c(Br)cc(Br)c2c1[nH]c(=O)c1ccccc12 :: 107 % of control
38) COC(=O)CN1C(=O)c2cccc3cc([N+](=O)[O-])cc(c23)C1=O :: 90 % of control
39) COc1cc(C=Nc2ccc3c(c2)OCO3)cc(OC)c1OC :: 86 % of control
40) O=C1Nc2ccccc2C12OCCS2 (centres undefined) :: 92 % of control
41) NCCn1[nH]c(=O)c2cnccc2c1=O :: 95 % of control
42) CCOC(=O)C1=C(C)Oc2cc3c(cc2C1c1ccc(OC)cc1)OCO3 (centres undefined) :: 94 % of control
43) Cc1nc2ccccc2[se]1 :: 96 % of control
44) COc1ccc(C(=O)CC(=O)CCC(=O)Nc2ccc(Cl)cc2Cl)cc1 :: 92 % of control
